B1: HESX1 (parent)
chain: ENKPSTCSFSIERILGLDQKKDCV

- Variants of: B1
- Protocol notes: protein stability index of a GFP-peptide fusion (GPS, HEK-293T) (PSI 1-6); higher = more stable;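 also: lentivirally expressed fusions sorted by FACS into six bins by GFP to DsRed ratio, PSI derived from sequencing read proportions per bin multiplied by bin number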
- Run conditions: c terminus: a fixed tail appended
Outcome label depends on protein stability index relative to 3: at/above gives rule met, below gives rule not met.

>>> class_label("E1L")
"rule not met"
>>> class_label("E1H")
"rule not met"
>>> class_label("K3Q")
"rule met"
>>> class_label("C7R")
"rule met"
>>> class_label("T6Q")
"rule met"
>>> class_label("L15F")
"rule not met"
>>> class_label("D22G")
"rule not met"
>>> class_label("C7Q")
"rule met"
>>> class_label("N2C")
"rule not met"
>>> class_label("R13F")
"rule not met"
>>> class_label("I11L")
"rule met"
>>> class_label("R13E")
"rule met"
>>> class_label("F9N")
"rule met"
>>> class_label("S10H")
"rule met"
>>> class_label("L17A")
"rule met"
>>> class_label("T6Y")
"rule met"
>>> class_label("E1S")
"rule not met"
>>> class_label("K21V")
"rule not met"
>>> class_label("Q19W")
"rule not met"
>>> class_label("G16K")
"rule not met"
>>> class_label("L17P")
"rule met"
